# Tested on: CDK4 and CDK6
# Experiment: CDK reactivity test 2 (Test Example 2), CDK4/6 reactivity
# Type: biochemical
# Assay Setup: [(V2/V1)+(V4/V3)]/2; relative value when Comparative Polypeptide 2 is set as 1
# Method: […] V 1: luminescence intensity when using Comparative Polypeptide 2 and CDK4, V 2: luminescence intensity when using any of Polypeptides 2 to 17 and A to E, and CDK4, V 3: luminescence intensity when using Comparative Polypeptide 2 and CDK6, and V 4: luminescence intensity when using any of Polypeptides 2 to 17 and A to E, and CDK6 were measured, and CDK4/6 reactivity was calculated based on the formula ([(V2/V1)+(V4/V3)]/2). […]
No end group written: not given here. *: point of attachment. Biotin = O=C1N[C@H]2[C@H](CS[C@H]2CCCCC(=O)*)N1; Ahx = NCCCCCC(=O)O
Measurement Label: CDK4/6 Reactivity
A bare number is all that is needed in reply.

Bench note: what CDK4/6 Reactivity did GMPWSWNPWWRGGGG ({Biotin-Ahx}-GMPWSWNPWWRGGGG) [Polypeptide 15, mutant of Polypeptide 1, N-terminal biotin via aminohexane linker] show?
2

###

The reader will find reported CDK4/6 Reactivity values listed item by item below.
# Test system: CDK4 and CDK6
# Experiment: CDK reactivity test 2 (Test Example 2), CDK4/6 reactivity
# Format: biochemical
# Assay Setup: [(V2/V1)+(V4/V3)]/2; relative value when Comparative Polypeptide 2 is set as 1
No end group written: not given here. *: point of attachment. Biotin = O=C1N[C@H]2[C@H](CS[C@H]2CCCCC(=O)*)N1; Ahx = NCCCCCC(=O)O
Lab note: record just the number, no unit beside it.

Entry Sequence: GMPWSANPWWRGGGG ({Biotin-Ahx}-GMPWSANPWWRGGGG) [Polypeptide 6, mutant of Polypeptide 1, N-terminal biotin via aminohexane linker]
CDK4/6 Reactivity: 1
--
Entry Sequence: GMYWSPNPWWRGGGG ({Biotin-Ahx}-GMYWSPNPWWRGGGG) [Polypeptide E, mutant of Polypeptide 1, N-terminal biotin via aminohexane linker]
CDK4/6 Reactivity: 6
--
Entry Sequence: AMPWSPNPWWRGGGG ({Biotin-Ahx}-AMPWSPNPWWRGGGG) [Polypeptide 2, mutant of Polypeptide 1, N-terminal biotin via aminohexane linker]
CDK4/6 Reactivity: 15

Need CDK4/6 Reactivity of GMPWSPNPAWRGGGG ({Biotin-Ahx}-GMPWSPNPAWRGGGG) [Polypeptide 9, mutant of Polypeptide 1, N-terminal biotin via aminohexane linker] , thanks.
7
